test system: A549/ATCC NSCLC; test: NCI-60 one-dose screen, 48 h (100 = growth as untreated, 0 = no growth, -100 = all killed); settings: 10 µM unless noted
Compounds without any hit were thinned out: in the full panel of roughly 83,000, 20% have a hit.
Examples of molecules with documented growth follow.
readout: growth (%)

molecule=COc1cccc(/C=C2\Oc3cc(OCCCN4CCCC4)ccc3C2=O)c1OC readout=growth readout_units=% endpoint_value=97.2
molecule=Cc1ccc(-c2nc(C(Cl)Cl)n3nc(-c4ccccc4)cc3n2)cc1 readout=growth readout_units=% endpoint_value=12
molecule=COc1cc(-c2nc(N=Nc3c(O)[nH]c4ccc(Br)cc34)[nH]c(=O)c2C#N)cc(OC)c1OC readout=growth readout_units=% endpoint_value=99.4
molecule=O=C1NC(=C(Cl)Cl)/C(=N/S(=O)(=O)N2CCC(C3(C(F)(F)F)N=N3)CC2)N1 readout=growth readout_units=% endpoint_value=106
molecule=O=C1NN(C(=O)c2ccc(Cl)cc2)C(c2ccccc2)=N/C1=C\c1ccc(F)cc1 readout=growth readout_units=% endpoint_value=87.5
molecule=O=[N+]([O-])c1cc(S(=O)(=O)Oc2ccccc2)ccc1Cl readout=growth readout_units=% endpoint_value=88.4
molecule="CC(C)CC1NC(C)(C)CO1 (configuration not stated)" readout=growth readout_units=% endpoint_value=103

====

Examples of compounds with documented growth follow.
tested on: NCI-H226 lung; experiment: NCI-60 one-dose screen, 48 h (100 = growth as untreated, 0 = no growth, -100 = all killed); conditions: 10 µM unless noted
About 83,000 compounds went through this panel and 20% of them were active in at least one assay; those are over-represented in the sample as a whole.
readout: growth (%)

compound=COc1ccc2[nH]c(=O)c3c4ccccc4cn3c2c1 endpoint_value=37
compound="COc1ccc(C2=CC(c3cc(OC)c(OC)c(OC)c3)NC(=O)N2)cc1OC (centres undefined)" endpoint_value=64.3
compound=O=C(CSc1nc2ccccc2[nH]1)Nc1ccc(-c2nc3ccccc3s2)c(Cl)c1 endpoint_value=40.3
compound=CC(C)(C)n1cc(-c2ccnc(NCCNS(=O)(=O)c3ccc(C(F)(F)F)cc3)c2)c(-c2cccc(O)c2)n1 endpoint_value=67.2
compound=O=C(Nc1cccc(-n2cc(-c3ccncc3)c(-c3ccc(Cl)c(O)c3)n2)c1)c1ccc(N2CCOCC2)c(C(F)(F)F)c1 endpoint_value=107
compound=COc1ccc(NC(=O)c2cc(OC)c(OC)c(OC)c2)cc1O endpoint_value=99.9
compound=COc1cc(/C=C/C(=O)c2ccc(Nc3ncnc4cc(OC)c(OC)cc34)cc2)cc(OC)c1 endpoint_value=113
compound=COC(=O)c1cccc2c1N(C)c1c(cccc1C(=O)OC)CC2 endpoint_value=112
compound=Cc1ccc(NS(=O)(=O)c2cc(C)ccc2C)cc1 endpoint_value=79.1
compound="Cc1csc(NC(c2ccccc2)c2c(C)nc3ccccn23)n1 (centres undefined)" endpoint_value=94.8
compound=Cc1cc(C(C)(C)C)ccc1S endpoint_value=96.3
compound=COc1ccc(/C=C(\C#N)c2cc(OC)c3c(c2)OCO3)cc1 endpoint_value=26.7
compound=COc1c2occc2c(OC)c2c(=O)c(-c3cc(-c4ccc(F)cc4)c(C#N)c(N)n3)c(C)oc12 endpoint_value=72.1
compound=COc1cc(-c2nn(-c3cccc(NC(=O)c4ccc(N5CCOCC5)c(C(F)(F)F)c4)c3)cc2-c2ccncc2)ccc1Cl endpoint_value=42.5
compound="CN(C)c1nc2c(N)ncnc2n1C1OC(CO)C(O)C1O (centres undefined)" endpoint_value=104
compound=O=C(NNC(=S)Nc1ccccc1)c1cc2ccc1CCc1ccc(cc1)CC2 endpoint_value=78.9
compound=COc1cc2c(cc1OCCCN1CCN(CCCn3c4ccccc4c4ccccc43)CC1)N=C[C@@H]1CCCN1C2=O endpoint_value=-80.4
compound=COc1ccc(CNCCCN2C(=O)c3ccc4c5c(ccc(c35)C2=O)C(=O)N(CCCNCCCCNCCCN)C4=O)c(OC)c1OC endpoint_value=23.8
compound=COc1ccc(-c2nc(/C=C3/C(=O)Nc4ccc(F)cc43)c3ccccn23)cc1 endpoint_value=114
compound=O=C(N/N=C/C=C\c1ccccc1)C(=O)N/N=C/C=C/c1ccccc1 endpoint_value=111
compound=OCCCCCCNc1ncnc2cc(Cl)ccc12 endpoint_value=84.1
compound="COc1ccc(C2C=C(c3ccc(Cl)cc3)N=C3SC=C(C)N32)c(Br)c1 (centres undefined)" endpoint_value=59.5
compound="C/C=C/C1=CN2C(=O)c3cc(OC4OC(C)C(NC)C(C)(O)C4O)c(C)cc3N=C[C@@H]2C1 (some centres undefined)" endpoint_value=6.1
compound=c1coc(CNc2ccnc(Nc3ccc(OCCN4CCCCC4)cc3)n2)c1 endpoint_value=68.1
compound=O=[N+]([O-])c1cc(S(=O)(=O)Oc2ccccc2)ccc1Cl endpoint_value=75.3
compound=COc1ccc(NC(=O)CSc2nc(-c3ccc(OC)c(OC)c3)cc(-c3cc(OC)c(OC)c(OC)c3)n2)cc1 endpoint_value=108
compound=Cn1cnc2c(N3CCN(C(=O)OCc4ccc5c(Cl)cc(Cl)c(O)c5n4)CC3)nc(Cl)nc21 endpoint_value=72.9
compound="CCN(CC)CCC(CNc1c2ccc(Cl)cc2nc2ccc(OC)cc12)c1ccccc1 (centres undefined)" endpoint_value=13.9
compound=O=[N+]([O-])c1ccc(C(c2ccccc2)c2ccccc2)cc1 endpoint_value=100
